Origin of the recorded values: PubChem BioAssay (Tox21)

test: qHTS assay to identify small molecule antagonists of the glucocorticoid receptor (GR) signaling pathway - cell viability counter screen (AID 720693); conditions: GR-bla HeLa viability, CellTiter-Glo luminescence, 18 h, with 5 nM dexamethasone present; series mostly up to 58.5 µM; note: nearly all actives have a fitted effect of over 55% in size
Inconclusive results are not listed. Active and inactive are the calls of the source. Calls come from the whole dose curve; as a rule, active = well fitted cell-killing curve with a large enough effect in the repeat runs; inconclusive = weak or mixed curves, or effect the other way; inactive = no such curve, though single readings can be large or run the other way.
Quantity measured: outcome

INSERT INTO measurements (substance_smiles, result) VALUES
  ('S=C([S-])NCCNC(=S)[S-].S=C([S-])NCCNC(=S)[S-].[Mn+2].[Zn+2]', 'inactive'),
  ('O=c1[nH]c2ccccc2n1CCCN1CCN(C(c2ccccc2)c2ccccc2)CC1', 'inactive'),
  ('O=C(O)c1cccc(C(F)(F)F)c1', 'inactive'),
  ('COc1cc(S(=O)(=O)O)c(C)cc1N=Nc1c(O)ccc2cc(S(=O)(=O)O)ccc12', 'inactive'),
  ('CCCCCCCC', 'inactive'),
  ('c1ccsc1', 'inactive'),
  ('C[C@@H](O)[C@H](N)C(=O)O', 'inactive');

====

target: Luciferin 4-monooxygenase (Photinus pyralis) (UniProt P08659); test: qHTS assay to identify small molecule inhibitors of firefly luciferase (AID 1224835); note: nearly all actives have a fitted effect of over 25% in size; details: purified P. pyralis luciferase, luminescence inhibition; series mostly up to 115 µM
Sequence (P08659 whole entry, looked up): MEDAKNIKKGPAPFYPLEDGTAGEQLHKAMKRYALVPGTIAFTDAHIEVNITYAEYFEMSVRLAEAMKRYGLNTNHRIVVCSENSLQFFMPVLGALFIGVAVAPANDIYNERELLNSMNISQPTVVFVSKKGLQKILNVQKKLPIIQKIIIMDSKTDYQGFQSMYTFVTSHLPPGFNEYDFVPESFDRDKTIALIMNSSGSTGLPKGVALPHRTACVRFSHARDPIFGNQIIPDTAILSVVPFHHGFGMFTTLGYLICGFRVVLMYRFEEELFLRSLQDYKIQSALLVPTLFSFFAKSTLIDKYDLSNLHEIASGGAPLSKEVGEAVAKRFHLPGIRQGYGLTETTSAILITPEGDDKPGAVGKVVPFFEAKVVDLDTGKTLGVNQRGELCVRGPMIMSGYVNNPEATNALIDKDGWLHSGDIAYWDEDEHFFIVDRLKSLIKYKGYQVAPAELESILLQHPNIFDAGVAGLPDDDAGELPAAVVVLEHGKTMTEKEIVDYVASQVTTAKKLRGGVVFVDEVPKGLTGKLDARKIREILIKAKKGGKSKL
Results filed as inconclusive are left out. Calls of active or inactive are those of the source. The call rests on the fitted dose curve; in most records, active means well fitted inhibition curve with a large enough effect in the repeat runs; inconclusive means weak or mixed curves; inactive means flat fitted curve, though single readings scatter.
Classes used: 1.0 for active, 0.0 for inactive

INSERT INTO assay_data (compound, qualitative_label) VALUES
  ('Cc1ccc(N/N=c2\c(=O)cc/c(=N\Nc3ccc(S(=O)(=O)O)cc3)c2=O)c(C)c1', 1.0),
  ('CC1=Nc2ccccc2C1(C)C', 1.0),
  ('CCCCCCC1CCCC(=O)O1 (configuration not stated)', 0.0),
  ('C#Cc1ccc(-c2ccccc2F)cc1', 1.0),
  ('C=CCn1c(=O)n(CC=C)c(=O)n(CC=C)c1=O', 0.0),
  ('CC(=O)[C@H]1CC[C@H]2[C@@H]3CCC4=CC(=O)CC[C@]4(C)[C@H]3CC[C@]12C', 0.0),
  ('Fc1ccc(C(c2ccc(F)cc2)N2CCNCC2)cc1', 0.0),
  ('CCCCCCCCCCCCOC(=O)c1ccc(O)cc1', 0.0),
  ('Clc1ccnc(Cl)n1', 0.0),
  ('COc1ccc(-c2coc3cc(O)ccc3c2=O)cc1', 1.0),
  ('CCN1C(=O)c2ccccc2C1Nc1ccc(OCCN2CCCCC2)cc1 (configuration not stated)', 0.0),
  ('CC(C)=CCNc1ncnc2c1ncn2[C@@H]1O[C@H](CO)[C@@H](O)[C@H]1O', 0.0),
  ('ClCCl', 0.0),
  ('CNc1ccc([N+](=O)[O-])cc1', 1.0),
  ('Cc1cccc(C(=O)O)c1O', 0.0),
  ('Nc1ccc(C(=O)O)c(O)c1', 0.0),
  ('CC(C(=O)O)c1ccc2c(c1)[nH]c1ccc(Cl)cc12 (configuration not stated)', 1.0),
  ('CC(C)CCCCCOC(=O)CCS', 0.0),
  ('CC(C)(C)C1CCC(=O)CC1', 0.0),
  ('COc1cccc(OC)c1C(=O)O', 0.0),
  ('Cc1ccc(O)c(N)c1', 1.0),
  ('Cc1c(C)c2c(c(C)c1OC(=O)c1cccnc1)CC[C@@](C)(CCC[C@H](C)CCC[C@H](C)CCCC(C)C)O2', 0.0),
  ('O[C@@H]([C@H](O)[C@H](O)CBr)[C@H](O)CBr', 0.0),
  ('O=S(=O)(O)c1ccccc1/C=C/c1ccc(-c2ccc(/C=C/c3ccccc3S(=O)(=O)O)cc2)cc1', 1.0),
  ('CC(N=C(NC#N)Nc1ccncc1)C(C)(C)C (configuration not stated)', 0.0),
  ('Cc1ccc(C(C)C)cc2c(C)ccc1-2', 0.0),
  ('O=[N+]([O-])c1cccc(C(F)(F)F)c1', 0.0),
  ('CCCc1ccc(OCC(=O)N2CCN(C(=O)COc3ccc(CCC)cc3OC)CC2)c(OC)c1', 0.0),
  ('CCC(CC)(CC(=O)Nc1cccc(/C=C/c2nc(C3CCC3)cs2)c1)C(=O)O', 1.0),
  ('CC[N+](CC)(CC)CCOC(=O)C(C1CCCC1)C1CCCC1', 0.0),
  ('OC/C=C/CO', 0.0),
  ('CC(=O)CC(=O)Nc1ccc(S(=O)(=O)O)cc1', 0.0),
  ('CC(CO)Oc1ccccc1 (configuration not stated)', 0.0),
  ('CN(C)Cc1ccccc1O', 0.0),
  ('C=CCCC(=O)/C=C/C1C(C)=CCCC1(C)C (configuration not stated)', 0.0),
  ('O=C(/C=C/c1ccccc1)OC/C=C/c1ccccc1', 1.0),
  ('CCCC(=O)OCOC(=O)C1=C(C)NC(C)=C(C(=O)OC)C1c1cccc(Cl)c1Cl (configuration not stated)', 0.0),
  ('CCCCCCCC', 0.0),
  ('CCOc1ccc2ccccc2c1C(=O)N[C@@H]1C(=O)N2[C@@H]1SC(C)(C)[C@@H]2C(=O)O', 0.0),
  ('C=CC(C)(CCC=C(C)C)OC=O (configuration not stated)', 0.0),
  ('OC12N=C(c3ccccc3)SC1Cc1cc(Cl)ccc12 (configuration not stated)', 1.0),
  ('O=C(O)c1cccc(C(F)(F)F)c1', 0.0),
  ('Nc1ccc(NCCO)c([N+](=O)[O-])c1', 1.0),
  ('CN(C)[C@@H](CCOc1cccc2ccccc12)c1ccccc1', 0.0),
  ('CCN(CC)C(=O)c1cc(S(=O)(=O)Cc2ccccc2)c(N2CCC(c3ccccc3)CC2)cc1N(CC)CCN(C)C', 0.0),
  ('CC(CCc1ccccc1)NCC(O)c1ccc(O)c(C(N)=O)c1 (configuration not stated)', 0.0),
  ('O=C(O)CCN(C1(C(=O)NO)CCCC1)S(=O)(=O)c1ccc(Oc2ccc(F)cc2)cc1', 0.0),
  ('c1cnccn1', 0.0),
  ('Cc1ccc(C(=O)O)cc1', 0.0),
  ('CN(C)C(=O)COC(=O)Cc1ccc(OC(=O)c2ccc(N=C(N)N)cc2)cc1', 0.0),
  ('Cc1c(C)c2c(c(C)c1O)CC[C@@](C)(CCC[C@H](C)CCC[C@H](C)CCCC(C)C)O2', 0.0),
  ('c1ccsc1', 0.0);
